Test system: Leishmania infantum
Assay: In Vitro evaluation for the percentage of activity towards Leishmania infantum at 12.5 uM Concentration
Format: functional
observation-type: Percent inhibition of Leishmania infantum

Before answering, review these 4 worked examples.
{"compound": "COc1ccc2nc3cc(Cl)ccc3c(NCCCN(CCCNc3c4ccc(Cl)cc4nc4ccc(OC)cc34)C(=O)C(CCCCN)NC(=O)OC(C)(C)C)c2c1 (stereo not given)", "experimental-target": "Leishmania infantum", "result-value": "40%"}
{"compound": "COc1ccc2nc3cc(Cl)ccc3c(NCCCN(CCCNc3c4ccc(Cl)cc4nc4ccc(OC)cc34)C(=O)C(CO)NC(=O)OC(C)(C)C)c2c1 (stereo not given)", "experimental-target": "Leishmania infantum", "result-value": "40%"}
{"compound": "COc1ccc2nc3cc(Cl)ccc3c(NCCCN(CCCNc3c4ccc(Cl)cc4nc4ccc(OC)cc34)C(=O)CCC(=O)N3CCOCC3)c2c1", "experimental-target": "Leishmania infantum", "result-value": "0%"}
{"compound": "COc1ccc2nc3cc(Cl)ccc3c(NCCCCCCNc3c4ccc(Cl)cc4nc4ccc(OC)cc34)c2c1", "experimental-target": "Leishmania infantum", "result-value": "40%"}

Query compound follows.
Give Percent inhibition of Leishmania infantum for the following compound: COc1ccc2nc3cc(Cl)ccc3c(NCCN(CCNc3c4ccc(Cl)cc4nc4ccc(OC)cc34)C(=O)C(C)NC(=O)OC(C)(C)C)c2c1 (stereo not given)
90%

Ref: ChEMBL document CHEMBL1133105
